Below, each entry is listed alongside its reported viability.
- Measurement Notes: viability of HCT116 without oncogenic beta-catenin – human colon tumor cells, pilot screen (AID 823);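 further: 0% = wells killed by 20 µM Hyamine and 100% = untreated DMSO cell wells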
- Experimental Parameters: HCT116 beta-catenin knockout viability, CellTiter-Glo, 60 h; at 10 µM; stronger effect = lower value
Results filed as inconclusive are left out.
Value expressed in %; do not type the unit.

Read the entry COc1cc2c(cc1OC)C(c1ccc(C)o1)CC(=O)N2 (stereo not drawn) and write its reported viability.
80

Report measured viability; entry is CCN=C(Nc1ccc2c(c1)OCO2)SC1CC(=O)N(c2ccccc2F)C1=O (stereo not drawn)
97

Given the molecule "COc1ccc(N(CC(=O)Nc2cc(C)ccc2C)S(=O)(=O)c2c(C)nn(C)c2C)cc1" , write its reported viability.
83.8

Origin of values: PubChem BioAssay
